Tested on: 521955-158-R2-J5-PDC complex spheroids, viability
protocolText: Anticancer human tumor 521955-158-R2-J5-PDC patient-derived pancreatic carcinoma cell line growth inhibition [RAS]
details: second compound 0.0949 µM; first compound 3.16 µM; active compounds read low
This listing pairs compounds with measured viability, T/C.
Write the answer as a number in %, unit excluded.

As a guide, the following entries are already answered.
>>> measuredvalue("CC1(O)CCCC1n1c(=O)c(C(F)F)cc2cnc(NC3CCN(S(C)(=O)=O)CC3)nc21 (stereo not drawn) + CCn1c(-c2cc(N3CCN(C)CC3)cnc2C(C)OC)c2c3cc(ccc31)-c1csc(n1)CC(NC(=O)C1CC1C)C(=O)N1CCCC(N1)C(=O)OCC(C)(C)C2")
21.5
>>> measuredvalue("C[C@@H](NC(=O)c1ncnc(N)c1Cl)c1ncc(C(=O)Nc2cc(C(F)(F)F)c(Cl)cn2)s1 + CCn1c(-c2cc(N3CCN(C)CC3)cnc2C(C)OC)c2c3cc(ccc31)-c1csc(n1)CC(NC(=O)C1CC1C)C(=O)N1CCCC(N1)C(=O)OCC(C)(C)C2")
17.8

Okay, next one:
Give its viability, T/C value. Item: CC(Nc1ccc2c(c1)OCCn1cc(N3C(=O)OCC3C(F)F)nc1-2)C(N)=O (stereo not drawn) + CCn1c(-c2cc(N3CCN(C)CC3)cnc2C(C)OC)c2c3cc(ccc31)-c1csc(n1)CC(NC(=O)C1CC1C)C(=O)N1CCCC(N1)C(=O)OCC(C)(C)C2
5.01

----------
Test system: 521955-158-R2-J5-PDC complex spheroids, viability
protocolText: Anticancer human tumor 521955-158-R2-J5-PDC cell line growth inhibition [RAS];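 also: spheroids also contain HUVEC endothelial cells and mesenchymal stem cells as stroma; compound exposure lasted seven days before the viability read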
details: second compound 0.316 µM; first compound 0.000949 µM; active compounds read low
Description: RAS pathway inhibitors in Combinations in Complex Spheroids A high-throughput screen of multi-cell type tumor spheroids was designed to identify active combinations of RAS pathway inhibitors and targeted small molecules. Complex spheroids include a stromal component modeled by human endothelial cells (HUVEC) and fibroblasts modeled by human mesenchymal stem cells (MSCs). […] Compounds. […] If the clinical Cmax for an agent had not been determined, the highest concentration tested was 10 microM. […]
This listing pairs molecules with measured viability, T/C.
Write the answer as a number in %, unit excluded.

Find the measured viability, T/C: item CC1(C)CCC(Nc2ncc(C(F)(F)F)c(-c3c[nH]c4c(P(C)(C)=O)c(C#N)ccc34)n2)CN1 (centres undefined) + C=CC(=O)N1CCN(c2nc(OCC3CCCN3C)nc3c(F)c(-c4nc(N)cc(C)c4C(F)(F)F)c(Cl)cc23)C(C)C1 , target or system 521955-158-R2-J5-PDC complex spheroids, viability.
84.5

Find the measured viability, T/C: item CCc1c2c(nc3ccc(O)cc13)-c1cc3c(c(=O)n1C2)COC(=O)[C@]3(O)CC + C#Cc1c(F)ccc2cc(O)cc(-c3ncc4c(N5CC6CCC(C5)N6)nc(OCC56CCCN5CC(F)C6)nc4c3F)c12 , target or system 521955-158-R2-J5-PDC complex spheroids, viability.
51.9

Find the measured viability, T/C: item CC1(C)CCC(Nc2ncc(C(F)(F)F)c(-c3c[nH]c4c(P(C)(C)=O)c(C#N)ccc34)n2)CN1 (centres undefined) + C#Cc1c(F)ccc2cc(O)cc(-c3ncc4c(N5CC6CCC(C5)N6)nc(OCC56CCCN5CC(F)C6)nc4c3F)c12 , target or system 521955-158-R2-J5-PDC complex spheroids, viability.
40.4

Find the measured viability, T/C: item CCc1c2c(nc3ccc(O)cc13)-c1cc3c(c(=O)n1C2)COC(=O)[C@]3(O)CC + C=CC(=O)N1CCN(c2nc(OCC3CCCN3C)nc3c(F)c(-c4nc(N)cc(C)c4C(F)(F)F)c(Cl)cc23)C(C)C1 , target or system 521955-158-R2-J5-PDC complex spheroids, viability.
83.2

----------
System: 521955-158-R2-J5-PDC complex spheroids, viability
protocolText: Anticancer human tumor 521955-158-R2-J5-PDC cell line growth inhibition [RAS];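 also: spheroids also contain HUVEC endothelial cells and mesenchymal stem cells as stroma; compound exposure lasted seven days before the viability read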
details: second compound 0.003 µM; first compound 3.16 µM; active compounds read low
recordedMetric: viability, T/C

>>> measuredvalue("CCC(CC)c1cc(NC2CCC(N)C2)n2nccc2n1 (centres undefined) + CCn1c(-c2cc(N3CCN(C)CC3)cnc2C(C)OC)c2c3cc(ccc31)-c1csc(n1)CC(NC(=O)C1CC1C)C(=O)N1CCCC(N1)C(=O)OCC(C)(C)C2")
"6.49%"

Give its viability, T/C value. Item: CC(C)NCC(C(=O)N1CCN(c2ncnc3c2C(C)CC3O)CC1)c1ccc(Cl)cc1 (centres undefined) + CCn1c(-c2cc(N3CCN(C)CC3)cnc2C(C)OC)c2c3cc(ccc31)-c1csc(n1)CC(NC(=O)C1CC1C)C(=O)N1CCCC(N1)C(=O)OCC(C)(C)C2
6.94%

Give its viability, T/C value. Item: CC(=O)OC12COC1CC(O)C1(C)C(=O)C(O)C3=C(C)C(OC(=O)C(O)C(NC(=O)OC(C)(C)C)c4ccccc4)CC(O)(C(OC(=O)c4ccccc4)C21)C3(C)C (centres undefined) + CCn1c(-c2cccnc2C(C)OC)c2c3cc(ccc31)N1CCOC(CC(NC(=O)C(C(C)C)N(C)C(=O)C3(F)CCN(C(=O)C#CC(C)(C)N(C)C)CC3)C(=O)N3CCCC(N3)C(=O)OCC(C)(C)C2)C1
28.9%

Give its viability, T/C value. Item: C[C@@H](NC(=O)c1ncnc(N)c1Cl)c1ncc(C(=O)Nc2cc(C(F)(F)F)c(Cl)cn2)s1 + CCn1c(-c2cc(N3CCN(C)CC3)cnc2C(C)OC)c2c3cc(ccc31)-c1csc(n1)CC(NC(=O)C1CC1C)C(=O)N1CCCC(N1)C(=O)OCC(C)(C)C2
47.9%

----------
System: 521955-158-R2-J5-PDC complex spheroids, viability
protocolText: Anticancer human tumor 521955-158-R2-J5-PDC cell line growth inhibition [RAS];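 also: spheroids also contain HUVEC endothelial cells and mesenchymal stem cells as stroma; compound exposure lasted seven days before the viability read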
details: second compound 0.03 µM; first compound 10 µM; active compounds read low
This listing pairs molecules with measured viability, T/C.
Write the answer as a number in %, unit excluded.

As a guide, the following entries are already answered.
>>> measuredvalue("CC(Nc1ccc2c(c1)OCCn1cc(N3C(=O)OCC3C(F)F)nc1-2)C(N)=O (configuration not stated) + CCn1c(-c2cccnc2C(C)OC)c2c3cc(ccc31)N1CCOC(CC(NC(=O)C(C(C)C)N(C)C(=O)C3(F)CCN(C(=O)C#CC(C)(C)N(C)C)CC3)C(=O)N3CCCC(N3)C(=O)OCC(C)(C)C2)C1")
13.9
>>> measuredvalue("CC(Nc1ccc2c(c1)OCCn1cc(N3C(=O)OCC3C(F)F)nc1-2)C(N)=O (configuration not stated) + CCn1c(-c2cc(N3CCN(C)CC3)cnc2C(C)OC)c2c3cc(ccc31)-c1csc(n1)CC(NC(=O)C1CC1C)C(=O)N1CCCC(N1)C(=O)OCC(C)(C)C2")
1.25
>>> measuredvalue("CCC(CC)c1cc(NC2CCC(N)C2)n2nccc2n1 (configuration not stated) + CCn1c(-c2cccnc2C(C)OC)c2c3cc(ccc31)N1CCOC(CC(NC(=O)C(C(C)C)N(C)C(=O)C3(F)CCN(C(=O)C#CC(C)(C)N(C)C)CC3)C(=O)N3CCCC(N3)C(=O)OCC(C)(C)C2)C1")
5.64

Give its viability, T/C value. Item: CC(C)NCC(C(=O)N1CCN(c2ncnc3c2C(C)CC3O)CC1)c1ccc(Cl)cc1 (configuration not stated) + CCn1c(-c2cc(N3CCN(C)CC3)cnc2C(C)OC)c2c3cc(ccc31)-c1csc(n1)CC(NC(=O)C1CC1C)C(=O)N1CCCC(N1)C(=O)OCC(C)(C)C2
1.08

Give its viability, T/C value. Item: C[C@@H](NC(=O)c1ncnc(N)c1Cl)c1ncc(C(=O)Nc2cc(C(F)(F)F)c(Cl)cn2)s1 + CCn1c(-c2cc(N3CCN(C)CC3)cnc2C(C)OC)c2c3cc(ccc31)-c1csc(n1)CC(NC(=O)C1CC1C)C(=O)N1CCCC(N1)C(=O)OCC(C)(C)C2
21.6

Give its viability, T/C value. Item: NC1c2ccccc2OC12CCN(c1cnc3c(N4CCCc5ncccc54)n[nH]c3n1)CC2 (configuration not stated) + CCn1c(-c2cccnc2C(C)OC)c2c3cc(ccc31)N1CCOC(CC(NC(=O)C(C(C)C)N(C)C(=O)C3(F)CCN(C(=O)C#CC(C)(C)N(C)C)CC3)C(=O)N3CCCC(N3)C(=O)OCC(C)(C)C2)C1
47.1

Give its viability, T/C value. Item: CC(=O)OC12COC1CC(O)C1(C)C(=O)C(O)C3=C(C)C(OC(=O)C(O)C(NC(=O)OC(C)(C)C)c4ccccc4)CC(O)(C(OC(=O)c4ccccc4)C21)C3(C)C (configuration not stated) + CCn1c(-c2cc(N3CCN(C)CC3)cnc2C(C)OC)c2c3cc(ccc31)-c1csc(n1)CC(NC(=O)C1CC1C)C(=O)N1CCCC(N1)C(=O)OCC(C)(C)C2
9.64
